# method_summary: yeast display, Sf9 membrane polyspecificity reagent, FACS + sequencing; frameworks hold sequencing errors

sequence_data	polyreactivity (PSR sort gate)
QVQLVESGGGLVQAGGSLRLSCAASGYTFLKYAMGWYRQAPGKERELVAAISGRGGRTYYADSVKGRFTISRDNAKNTVYLQMNSLKPEDTAVYYCNAVRNSPDDYWGQGTQVTVSS	high polyreactivity
QVQLVESGGGLVQAGGSLRLSCAASGRTYGGYAMGWYRQAPGKERELVAVINWRGGSTYYADSVKGRFTISRDNAKHTVYLQMNILKPEDTAVYYCNKVSLRTQSAQFHYWGQGTQVTVSS	high polyreactivity
QVQLVESGGGLVQAGGSLRLSCAASGFILTSYAMGWYRKAPGKERELVAAISSRGGRTYYADSVKGRFTISRDNEKNTVYLQMNSLKPEDTAVYYCNAGVYVVGDFDYWGLGTQVTVSS	high polyreactivity
QVQLVESGGGLVQAGGSLRLSCAASGRTFGWNVMGWYRQAPGKERELVAAISGGGTSTYYADSVKGRFTISRDNAKNTVYLQMNSLKPEDTGVYYCNAYYPGSYYPRSGRYDYWGQGTQVTVSS	high polyreactivity

---

# method_summary: yeast display, Sf9 membrane polyspecificity reagent, FACS + sequencing; frameworks hold sequencing errors
measure: polyreactivity (PSR sort gate)

Known results for sequences:
sequence_data	polyreactivity (PSR sort gate)
QVQLVESGGGLVQARGSLRLSCAASGSIFPGYAMRWYREAPGKARELVAAISTSGGSTYADSVTGRFTISRDNAKNTGYLQMNSLKPEDTAVYYCAATYTYTSPVYYSLDGPWPYDYWGQGSQVTVSS	low polyreactivity
QVQLVESGGGLVQAGGSLRLSCAASGRIFYYYAMGWSRQAPGKERELVAAITRRGGSTYYADSVKGRFTISRDNAKNTVYLQMNSLKPEDPADYYCAKPDRTGWLDGEYWGQGTQVTVSS	low polyreactivity
QVQLVESGGGLVQAGGSLRLSCAASGYTFAYNAMGWYRQAPGKERELVAVITWSGDSTYYADSVKGRFTISRDNAKNTVYLQMNSLKPEDTAVYYCAAQVDRWKGREHDYWGQGTQVTVSS	low polyreactivity
QVQLVESGGGLVQAGGSLRLSCASSGRIFSVYTMGWYRQAPGKERELVAAISSGASTNYADSVKGRFTISRDNAMNTVYLQMKSLKPEDTAVYYCAAVSPRRYRYDYWGQGTQVTVSS	low polyreactivity

Input line: I have this sequence here, QVQLVESGGGLVQAGGSLRLSCAASGIIFRNNAMGWYRQAPGKEREFVARISKRGGSTYYADSVKGRFTISRDNAKNTVYLQQNSLKPEDTAVYYCAKGYGSGSYLYDYWGQGTQVTVSS , and I need its recorded polyreactivity (PSR sort gate).
Output line: high polyreactivity

Input line: I have this sequence here, QVQLVESGGGLVQAGGSLRLSCAASGRTFQKYAMGWYRQAPGKERELVAAITGSGGSTYYADSVKGRFTISRDIAKYTVYLQMNSLKPEDTAVYYCAAYAYGVWHSQDGGNYWGQGTLVTVSS , and I need its recorded polyreactivity (PSR sort gate).
Output line: low polyreactivity

Input line: I have this sequence here, QVQLVESGGGLVQAGGSLRLSCAASGLTFKYYAMGWYRQAPGKERELVAAISASGGRTSYADSVKGRFTISRDNAKNTFYLQMNSLKPEDTAVYYCNADITSSGPKSDYWGQGTQVTVSS , and I need its recorded polyreactivity (PSR sort gate).
Output line: high polyreactivity

Input line: I have this sequence here, QVQLVESGGGLVQAGGSLRLSCAASGSTFVKNTMGWYRQAPGKERELVAAIRSSGGSTYYADSVKGRFTISRDNAKNTVYLQMNSLKPEDTAVYYCAAPRVSVHGGGYWGQGTQVTVSS , and I need its recorded polyreactivity (PSR sort gate).
Output line: high polyreactivity

Input line: I have this sequence here, QVQLVDSGGGLVQAGGSLRLSCAASGSIFIINAKGWYRQSPGKERELVAAINSGGSTKYADSVKGRFTISRDNAKNTVYLQMNSLKPEDTAVYYCNAGSRPTAGGMDSWGQGTQVTVSS , and I need its recorded polyreactivity (PSR sort gate).
Output line: low polyreactivity

---

# method_summary: yeast display, Sf9 membrane polyspecificity reagent, FACS + sequencing; frameworks hold sequencing errors
measure: polyreactivity (PSR sort gate)

Known results for sequences:
sequence_data	polyreactivity (PSR sort gate)
QVQLVESGGGLVQAGGSLRLSCAASGSIFYYYAMGWYRQAPGKERELVAAITVSGGRTYYADSVKGRFTISRDNAKNTVYLQMNSLKPEATAVYYCAAQIYGKYDYWGQGTQVTVSS	low polyreactivity
QDQLVESGGGLVQAGGSLRLSCAASGSTFYFNAMGWYRPAPGKEREFVAVIDGSGGFTYYADSVKGRFTISRDNAKNTVYLQLNILKPEDTAVYYCNADLVYNTFFYSGGDEYDYWGQGTQVNVSS	high polyreactivity
QVQLVESGGGLVQAGGSLRLSCAASGSTLEFNARGWSRQAPGKERELVAVINRSDGSTYYADSVKGRFTISRDNAKNTVYLQMNSLKPEDTAVYYCAADRHQVSVISTEDYWGQGTQVTVSS	low polyreactivity
QVHLVESGGGLVQAGGSLGLSCAASGFTFTRNTMGWYRQAPGKERELVAAITRGGSTNYADSVKGRFTISRDNAKNTVYLQMNSLKPEDTAVYYCNKGRNVVLVRTADDYWGQGTQVTVSS	low polyreactivity
QVHLQESGGGLVQAGGSLRLSCAASGNNSPVGVLGRYRQAPGKERELVATINFGGSSYYADSVKGRFTISRDNAKNTVYLQMNSLKREDTAVYYFAYCGQGTQVTVSS	low polyreactivity

Input line: I have this sequence here, QVQLVESGGGLVQAGGSLRLSCAASGSTFTYYAMGWYRQAPGKERELVAAISSTDSTYYADSVKGRFTISRDNAKNTVYVQMNSLKPEDTAVYYCAAVRFSHSRETRRGYWGQGTQVTVSS , and I need its recorded polyreactivity (PSR sort gate).
Output line: high polyreactivity

---

# method_summary: yeast display, Sf9 membrane polyspecificity reagent, FACS + sequencing; frameworks hold sequencing errors
measure: polyreactivity (PSR sort gate)

sequence_data	observed_result
QVQLVESGGGLVQAGGSLRLSCAASGITFLDNDMGWYRQAPVKERELVAAITSGVSTYYADSVKGRFTISRDNAKNTVYLQMNSLKPEDTAVYYCAADRPDVAGDYGGQGTQVTVSS	low polyreactivity
QVQLVESVGGLVQAGGSLRLSCPASGSIFYANAMGGYRQAPGKERELVATISTGGGRTYYADSVKGRFTISRDKAKNTVYLQMNSLKAEDTAVYYCNATRNYARVRYYYWGKGTQVTVSS	high polyreactivity
QVQLVESGGGLVHAGGSLRLSSAASGRIFWYYALGWYRQPPGKERELVASIRGSGGSTYADSVKGRFTVSRENAKNTVYLPMNSLKPEDTAVYYCAASGRQRGHPMYYWRQGTQVTVSS	high polyreactivity
QVQLVESGGGLVQAGGSLRLSCAASGRIFVWNAMGWYRQAPGKERELVAAITSSGGNTYYADSVKGRFTISRDNAKNTVYLQMNSLKPEDTAVYYCAARSSSRTQATTRYGYWGQGTQVTVSS	high polyreactivity
QVQLVESGGGLVQAGGSLRLSCAASGSTFYVYDMGCYRQAPGKEREWVAAISSGAGSTYYADSVKGRFTISRDNAKNTVYLQMNSLKRKIPRSITALLFTVNGGGSRSHDYWAQGTQVTVSS	low polyreactivity

Input line: I have this sequence here, QVHLVESGGCLVQAGGSLRLSCAASGFIFPWYAMGWYRQAPGKERELVAAISSSGGRTYYADSVKGRFTISRDNAKNTVYLQMNSLKPEDTGVYYCNVAYGLSQVYRYNYWGQGSQVTVSS , and I need its recorded polyreactivity (PSR sort gate).
Output line: high polyreactivity

Input line: I have this sequence here, QVQLVESGGGLVQAGGSLRLSCAASGRTFYGYTMGWYRQAPGKERELVAAIRTSGGSTYADSVKGRFTISRDNAKNTVYLQMNSLKPEDTAVYYCAAPRVVYYGTAPAYRYDYWGQGTQVTVSS , and I need its recorded polyreactivity (PSR sort gate).
Output line: high polyreactivity

Input line: I have this sequence here, QVQLQESGGGLVQAGGSLRQSYAASGYIFPSLAMGWYRQAPGKEREFVAAIGRGSTNNYADSVQGRFTISRDNAKNTAYQQMNSLKPEDTAVYYCAAAASPLTRHLYWGQGTQVTVSS , and I need its recorded polyreactivity (PSR sort gate).
Output line: low polyreactivity

Input line: I have this sequence here, QVQLVESGGGLVQAGGSLRLSCAASGFTFRYYAMGWYRQAPGKERELVAAISSGGNTRYADSVKGRFTISRDNAKNTVYLQMNSLKPEDTAVYYCARRPGAWKYVYTGDYWGQGTQVTVSS , and I need its recorded polyreactivity (PSR sort gate).
Output line: high polyreactivity

Input line: I have this sequence here, QVQLVESGGGLVQAGGSLRLSCAASGSTFTYYAMGWYRQAPGKERELVASINWSGGSTRYADSVKGRFTISRDNAKNTVYLQMNSLKPEDTAVYYCAARKSPRSQVRGRSYYWGQGTQVTVSS , and I need its recorded polyreactivity (PSR sort gate).
Output line: high polyreactivity
